Test system: pigweed
ASSAY_OVERVIEW: Test B pre-/postemergence herbicide test
Type: in vivo, Amaranthus retroflexus
MEASUREMENT_SETUP: 500 g ai/ha; visual rating, 0 = no effect, 100 = complete control; preemergence
MEASURED_PROPERTY: Plant response rating, Pigweed

stdin: For the molecule shown here, CCc1cn(C(C)(C)C)nc1C(=O)Nc1cc(C(=O)N(C)CC)ccn1 [Compound 235] , give the reported Plant response rating, Pigweed.
stdout: 100

stdin: For the molecule shown here, C#CCNC(=O)c1cccc(NC(=O)c2sc(C(C)(C)C)nc2CC)n1 [Compound 217] , give the reported Plant response rating, Pigweed.
stdout: 0

stdin: For the molecule shown here, CCN(C)C(=O)c1cc(NC(=O)c2cc(C(C)(C)C)nn2CC)c(F)cc1F [Compound 254] , give the reported Plant response rating, Pigweed.
stdout: 100

stdin: For the molecule shown here, COC(=O)c1cccc(NC(=O)c2cc(C(C)(C)C)nn2C)n1 [Compound 312] , give the reported Plant response rating, Pigweed.
stdout: 0

stdin: For the molecule shown here, CCn1nc(C(C)(C)C)cc1C(=O)Nc1cccc(OC(C)C)c1 [Compound 273] , give the reported Plant response rating, Pigweed.
stdout: 100

stdin: For the molecule shown here, CCn1nc(C(C)(C)C)cc1C(=O)Nc1cc(C(N)=O)ccc1F [Compound 271] , give the reported Plant response rating, Pigweed.
stdout: 20
